For Human PDE7B (hPDE7B) (Homo sapiens, UniProt Q9NP56), measured IC50 is reported for the entries below.
experimental endpoint: IC50

> print(dat)
                                   molecule  experimental.endpoint   result
1  CCc1cnc(N)c2nnc(N3CCCC(C)(C)C3)n12 [Example 42]                   IC50  < 10 nM
2  CC1CCC(C)N(c2nnc3c(N)ncc(C#N)n23)C1 (racemic) [Example 60]                   IC50  < 10 nM
3  C[C@@H]1CCC[C@H](c2nnc3c(N)nccn23)C1 [Example 204]                   IC50  < 10 nM

====

Record set of IC50 for target or system Human PDE7B (hPDE7B) (Homo sapiens, UniProt Q9NP56).
experimental endpoint: IC50

> print(dat)
                                   molecule  result
1  C[C@H]1CCC[C@H](C)N1c1nnc2c(N)nccn12 [Example 64]  107 nM
2  CC1CCN(c2nnc3c(N)nccn23)CC1C (single isomer, unassigned) [Example 230]   80 nM
3  Nc1nccn2c([C@@H]3C[C@@H]4[C@H](C3)C4(F)F)nnc12 [Example 160]   80 nM
4     Nc1nccn2c(C3CCCC3)nnc12 [Example 161]  110 nM
5  Nc1ncnc2c1nnn2C12CC3CC(CC(C3)C1)C2 [Example 10]  100 nM
6  CC1CCCCC1c1nnc2c(N)ncnn12 (single isomer, unassigned) [Example 239]  110 nM

====

Here's a batch of compounds along with measured IC50 for UniProt Q9NP56.
experimental endpoint: IC50 (nM)

> print(dat)
                                    compound  comparator  result.number
 1    Nc1ncnc2c(C3CCCCC3)noc12 [Example 188]           =            210
 2  CC1CCC(C)(C)CN1c1nnc2c(N)nccn12 (single isomer, unassigned) [Example 236]           =             33
 3  Nc1nccn2c(C3CCC4CC4C3)nnc12 (stereo not drawn) [Example 158]           =             70
 4  CC1CC(c2nnc3c(N)nccn23)CC(F)(F)C1 (single isomer, unassigned) [Example 217]           =            100
 5  Nc1nccn2c(C3CCCC4(CC4)C3)nnc12 (single isomer, unassigned) [Example 209]           =            130
 6  CC1CCC(C)N(c2nnc3c(N)nccn23)C1 (racemic) [Example 59]           =            240
 7  Nc1nccn2c(N3CCCCC3Cc3ccccc3)nnc12 (stereo not drawn) [Example 40]           =            730
 8  Nc1ncnc2c1nnn2-c1c(F)cccc1F [Example 14]           =            560
 9  CC1CCCC(n2nnc3c(N)ncnc32)C1 (single isomer, unassigned) [Example 197]           =            340
10  Nc1nccn2c(C3CCCC(C(F)(F)F)C3)nnc12 (single isomer, unassigned) [Example 211]           >           1000
11  CC1CCC(C(F)(F)F)CC1c1nnc2c(N)nccn12 (single isomer, unassigned) [Example 174]           =              3
12  CC1CCC(C)(C)CN1c1nnc2c(N)nccn12 (single isomer, unassigned) [Example 237]           =            2.8
13  Nc1ncnc2c1nnn2C1CCCC(COCc2ccccc2)C1 (stereo not drawn) [Example 126]           =            280
14   Nc1nccn2c(CC3CCCCC3)nnc12 [Example 165]           =            360
15  CC1(C)CCCN(c2nnc3c(N)ncc(C4CC4)n23)C1 [Example 43]           =             30

====

The listing below reports pIC50 for compounds tested on hPDE10A (Homo sapiens).
Sequence (Q9Y233 290-1055 limits assumed): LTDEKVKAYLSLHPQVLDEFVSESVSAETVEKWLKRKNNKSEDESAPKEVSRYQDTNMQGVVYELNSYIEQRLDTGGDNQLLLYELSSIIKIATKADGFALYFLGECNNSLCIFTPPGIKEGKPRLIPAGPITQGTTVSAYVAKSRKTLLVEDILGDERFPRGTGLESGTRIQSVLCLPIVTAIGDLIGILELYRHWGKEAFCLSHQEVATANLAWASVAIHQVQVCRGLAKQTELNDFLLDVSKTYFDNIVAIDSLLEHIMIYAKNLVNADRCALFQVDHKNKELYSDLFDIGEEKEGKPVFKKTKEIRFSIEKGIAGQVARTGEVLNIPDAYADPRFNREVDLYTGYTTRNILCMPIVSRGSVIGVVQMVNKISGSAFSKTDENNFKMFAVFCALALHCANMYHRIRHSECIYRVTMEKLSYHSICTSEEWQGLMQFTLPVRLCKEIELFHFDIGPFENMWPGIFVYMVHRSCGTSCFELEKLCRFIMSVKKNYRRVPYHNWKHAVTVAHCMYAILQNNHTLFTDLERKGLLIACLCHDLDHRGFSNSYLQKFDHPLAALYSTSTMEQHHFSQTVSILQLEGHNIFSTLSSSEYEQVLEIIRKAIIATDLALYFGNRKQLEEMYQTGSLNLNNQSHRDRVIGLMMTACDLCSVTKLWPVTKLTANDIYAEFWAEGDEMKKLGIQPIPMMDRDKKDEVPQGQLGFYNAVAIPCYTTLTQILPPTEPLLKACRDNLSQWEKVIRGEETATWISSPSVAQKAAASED
pIC50: −log10 of the molar value.
experimental endpoint: pIC50

> print(dat)
                                   compound  result.number
1               Cc1cnc(N)c2nnc(C3CCCCC3)n12           5.14
2  Nc1nccn2c(C3CCCOC3)nnc12 (stereo not shown)           4.68
3  Nc1ncnn2c(C3CCCC(F)(F)C3)nnc12 (racemic)           4.75
4  Nc1ncnc2c1nnn2C1CCCCC1F (single isomer, unassigned)           4.51
5  Nc1nccn2c(N3CCCC(C(F)(F)F)C3)nnc12 (stereo not shown)           4.46
6  CC1CCCN(c2nnc3c(N)nccn23)C1 (stereo not shown)           4.89
7          Nc1ncnc2c1c(C(F)(F)F)nn2C1CCCCC1           6.44

====

Consider the following pIC50 values measured on Human PDE7B (hPDE7B) (Homo sapiens).
Sequence (Q9NP56 whole entry): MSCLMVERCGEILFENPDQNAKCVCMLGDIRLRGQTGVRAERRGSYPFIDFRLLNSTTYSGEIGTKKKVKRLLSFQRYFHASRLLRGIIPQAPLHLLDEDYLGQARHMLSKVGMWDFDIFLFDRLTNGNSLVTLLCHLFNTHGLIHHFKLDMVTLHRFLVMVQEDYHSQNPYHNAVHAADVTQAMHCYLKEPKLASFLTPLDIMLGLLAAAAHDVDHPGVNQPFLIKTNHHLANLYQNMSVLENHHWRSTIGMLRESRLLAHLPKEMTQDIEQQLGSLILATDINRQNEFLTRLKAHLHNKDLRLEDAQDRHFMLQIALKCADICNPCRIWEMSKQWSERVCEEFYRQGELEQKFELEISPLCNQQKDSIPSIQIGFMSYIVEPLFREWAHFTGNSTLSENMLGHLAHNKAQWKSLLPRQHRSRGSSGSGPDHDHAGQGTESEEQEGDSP
pIC50: −log10 of the molar value.
experimental endpoint: pIC50

> print(dat)
                                   compound  result
1  CC1CCC(C(F)(F)F)CC1c1nnc2c(N)ncnn12 (racemic)  > 8.00
2  CC1(C)CCCC(c2nnc3c(N)nccn23)C1 (single isomer, unassigned) [Example 206]  < 6.00
3        CC1(C)CCCN(c2nnc3c(N)ncc(Cl)n23)C1  > 8.00

====

target under test: hPDE10A (Homo sapiens)
procedure text: PDE10 inhibition assay (IC50), Experimental Example 3
Format: biochemical
condition context: at 10 μmol/L; read-out: inhibition rate (%) at prescribed concentration, PDE10
Just so you know, the groups by inhibition at 10 µM go like this: low band (below 30%), middle band (30% to below 40%), high band (40% or more)

> print(dat)
                                    compound  assigned.class
 1                  Nc1ncnn2c(C3CCCCC3)nnc12     middle band
 2                  Nc1cccn2c(C3CCCCC3)nnc12        low band
 3  CC1CCCC(n2nnc3c(N)ncnc32)C1 (single isomer, unassigned)       high band
 4               Nc1nccn2c(C3(F)CCCCC3)nnc12       high band
 5                  Nc1ncnc2c(C3CCCCC3)noc12       high band
 6                   Nc1ncnc2c1nnn2C1CCCCCC1     middle band
 7           CN1CCC[C@H](n2nnc3c(N)ncnc32)C1        low band
 8                   Nc1nccn2c(C3CCCC3)nnc12        low band
 9          Nc1ncnc2c1nnn2[C@H]1CCCC(F)(F)C1        low band
10              Nc1nccn2c(C3CC4(CC4)C3)nnc12        low band
11  Nc1ncnc2c1nnn2C1CCCC(C(F)(F)F)C1 (single isomer, unassigned)        low band
12       C[C@H]1CC[C@H](c2nnc3c(N)nccn32)CC1       high band
13                  Nc1cncn2c(C3CCCCC3)nnc12        low band
14      C[C@H]1CC[C@@H](n2nnc3c(N)ncnc32)CC1     middle band
15       C[C@H]1CC[C@H](n2nnc3c(N)ncnc32)CC1       high band

====

target under test: Human PDE7B (hPDE7B) (Homo sapiens)
pIC50: −log10 of the molar value.
experimental endpoint: pIC50

> print(dat)
                                   molecule  result
1  CC1(C)CCCC(c2nnc3c(N)nccn23)C1 (single isomer, unassigned) [Example 207]  > 8.00
2  CC1(C)CCCC(c2nnc3c(N)ncnn23)C1 (single isomer, unassigned) [Example 242]  > 8.00
3  CC1CCC(C(F)(F)F)CC1c1nnc2c(N)nccn12 (single isomer, unassigned) [Example 173]  < 6.00
4  Nc1nccn2c(C3CCCC4(CC4)C3)nnc12 (single isomer, unassigned) [Example 208]  > 8.00
5  C=C(C)[C@H]1CC[C@H](C)C(n2nnc3c(N)ncnc32)C1 (stereo in doubt)  < 6.00

====

target under test: hPDE4D (Homo sapiens, UniProt Q08499)
Construct: purchased SB Drug Discovery
Sequence (Q08499 whole entry): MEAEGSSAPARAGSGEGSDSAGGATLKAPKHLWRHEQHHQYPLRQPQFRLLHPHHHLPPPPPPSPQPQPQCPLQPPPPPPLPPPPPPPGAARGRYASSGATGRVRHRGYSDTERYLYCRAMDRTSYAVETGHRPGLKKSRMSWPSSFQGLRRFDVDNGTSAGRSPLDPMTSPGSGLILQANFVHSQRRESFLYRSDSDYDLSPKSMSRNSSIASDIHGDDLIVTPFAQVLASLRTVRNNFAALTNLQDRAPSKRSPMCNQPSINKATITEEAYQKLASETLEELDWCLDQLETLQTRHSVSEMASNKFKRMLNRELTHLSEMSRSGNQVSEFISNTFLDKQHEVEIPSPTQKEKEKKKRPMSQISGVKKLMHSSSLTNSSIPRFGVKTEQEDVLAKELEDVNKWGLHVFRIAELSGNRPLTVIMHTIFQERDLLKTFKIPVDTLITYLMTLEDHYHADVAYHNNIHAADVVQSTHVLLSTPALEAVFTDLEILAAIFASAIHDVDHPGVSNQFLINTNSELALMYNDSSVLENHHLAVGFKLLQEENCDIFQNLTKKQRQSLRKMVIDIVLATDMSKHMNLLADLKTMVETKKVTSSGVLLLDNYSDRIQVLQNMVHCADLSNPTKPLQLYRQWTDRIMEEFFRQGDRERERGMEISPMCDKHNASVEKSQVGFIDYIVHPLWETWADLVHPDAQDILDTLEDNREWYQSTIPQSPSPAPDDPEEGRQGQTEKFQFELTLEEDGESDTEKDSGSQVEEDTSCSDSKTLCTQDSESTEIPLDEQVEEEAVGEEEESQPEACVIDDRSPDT
procedure text: PDE4 inhibition assay (IC50), Experimental Example 3
Format: biochemical
condition context: at 10 μmol/L; read-out: inhibition rate (%) at prescribed concentration, PDE4
experimental endpoint: inhibition at 10 µM (%)

> print(dat)
                         structure  unit.of.measurement  result.number
1           Nc1ncnc2c1cnn2C1CCCCC1                    %             21
2  CN1CCC[C@H](n2nnc3c(N)ncnc32)C1                    %             17
3      Cc1nn(C2CCCCC2)c2ncnc(N)c12                    %             48

Recorded values, source patent US20190185479A1.
